Test: pKa
Type: physicochemical
recorded-metric: pKa
Give bare numbers.

The molecule identified as CCC1OC(=O)CC(O)C(C)C(OC2OC(C)CC(N(C)C)C2O)C(CC=O)CC(C)C(=O)C=CC2(C)OC2C1C (stereo not shown) [Antibiotic 67-694] registered its pKa at 8.7

====

Assay: Acute toxicity in mice
Set-up: species or system male CF-1 (Carworth Farms) mice
Conditions: mouse, in vivo, ip; Intraperitoneal
recorded-metric: LD50 (mg/kg)
Numbers only, in mg/kg.

compound CCC1OC(=O)CC(O)C(C)C(OC2OC(C)CC(N(C)C)C2O)C(CC=O)CC(C)C(=O)C=CC2(C)OC2C1C (stereo not shown) [Antibiotic 67-694] , LD50 observed: 350
